For each entry below, report its IC50 at 72 h value.
Assay: Cytotoxicity evaluation, MTT
Format: cell-based, human
Settings: HepG2 cells (hepatocarcinoma-derived, ATCC HB-8065); human HepG2 cells, 72 hours, MTT
Protocol: The aim of this assay was to evaluate the impact of metabolic activation of the tested compounds on cell viability. A cytotoxicity evaluation was performed using the method reported in Emami S A et al., Iran J Basic Med Sci 2012; 15:807-11 to determine the cytotoxic concentrations 50% (CC50) and using doxorubicin as a cytotoxic reference compound. These assays were performed in human HepG2 cells. HepG2 cells were purchased from ATCC (ref HB-8065). […]
Where a name gives a salt, the structure may show the parent alone.
Output spec: scalar in µM, unitless text.

What value of measured IC50 at 72 h is listed for CN(C)CCCNCc1ccc(-c2nc(-c3ccc(CNCCCN(C)C)cc3)c3ccsc3n2)cc1 [Compound 26B] ?
2.79

What value of measured IC50 at 72 h is listed for CN(C)CCCNCc1ccc(-c2nc(-c3ccc(CNCCCN(C)C)s3)c3ccn(-c4ccccc4)c3n2)cc1 [Compound 6B, oxalate] ?
1.74

What value of measured IC50 at 72 h is listed for CN(C)CCCNCc1ccc(-c2nc(-c3ccc(CNCCCN(C)C)cc3)c3ccn(-c4ccccc4)c3n2)cc1 [Compound 1B, oxalate] ?
1.65

What value of measured IC50 at 72 h is listed for CN(C)CCCNCc1ccc(-c2nc(-c3ccc(CNCCCN(C)C)cc3)c3ccn(-c4ccc(CNCCCN(C)C)cc4)c3n2)cc1 [Compound 13B, oxalate] ?
26.7

What value of measured IC50 at 72 h is listed for CN(C)CCCNCc1ccc(-c2nc(Cl)nc3[nH]ccc23)cc1 [Compound 15B, oxalate] ?
23.7

What value of measured IC50 at 72 h is listed for CN1CCN(CCCNCc2ccc(-c3nc(-c4ccc(CNCCCN5CCN(C)CC5)cc4)c4ccn(-c5ccccc5)c4n3)cc2)CC1 [Compound 2B, oxalate] ?
1.08

----------
Test system: Plasmodium telomeric sequence FPf1T
Experiment: FRET-melting, FPf1T
Details: K+ condition, 2 μM compound, 0.2 μM oligonucleotide
Where a name gives a salt, the structure may show the parent alone.
For each entry below, report its FRET-melting values in K+ conditions at 2 μM ΔTm FPf1T value.
Output spec: scalar in °C, unitless text.

What value of measured FRET-melting values in K+ conditions at 2 μM ΔTm FPf1T is listed for CN1CCN(CCCCNCc2ccc(-c3nc(-c4ccc(CNCCCCN5CCN(C)CC5)cc4)c4cnn(-c5ccccc5)c4n3)cc2)CC1 [Compound 42B] ?
33.2

What value of measured FRET-melting values in K+ conditions at 2 μM ΔTm FPf1T is listed for CN(C)CCCNCc1ccc(-c2nc(-c3ccc(CNCCCN(C)C)cc3)c3sccc3n2)cc1 [Compound 29B] ?
20.1

What value of measured FRET-melting values in K+ conditions at 2 μM ΔTm FPf1T is listed for CN(C)CCCNCc1ccc(-c2nc(-c3ccc(CNCCCN(C)C)s3)nc3c2ccn3-c2ccccc2)cc1 [Compound 7B, oxalate] ?
11.5

What value of measured FRET-melting values in K+ conditions at 2 μM ΔTm FPf1T is listed for CN(C)CCCNCc1ccc(-c2nc(NCCCN(C)C)nc3ccsc23)cc1 [Compound 31B] ?
1.8

What value of measured FRET-melting values in K+ conditions at 2 μM ΔTm FPf1T is listed for CN1CCN(CCCNCc2ccc(-c3nc(-c4ccc(CNCCCN5CCN(C)CC5)cc4)c4ccn(C)c4n3)cc2)CC1 [Compound 9B, oxalate] ?
10.1

What value of measured FRET-melting values in K+ conditions at 2 μM ΔTm FPf1T is listed for CN(C)CCCCNCc1ccc(-c2nc(-c3ccc(CNCCCCN(C)C)cc3)c3ncn(-c4ccccc4)c3n2)cc1 [Compound 40B] ?
35.1

What value of measured FRET-melting values in K+ conditions at 2 μM ΔTm FPf1T is listed for CN(C)CCCNCc1ccc(-c2nc(-c3ccc(CNCCCN(C)C)cc3)c3ccn(-c4ccc(CNCCCN(C)C)cc4)c3n2)cc1 [Compound 13B, oxalate] ?
33.1

----------
For each entry below, report its IC50 value.
System: Plasmodium falciparum 3D7
Assay: In vitro antiplasmodial activity, SYBR Green I, strain 3D7
Conditions: read-out: IC50 Plasmodium falciparum 3D7; chloroquine-sensitive strain 3D7, 48-hour incubation; oxalate
Counter-ions that a name gives are not always drawn.
Output spec: scalar in nM, unitless text.

What value of measured IC50 is listed for CN1CCN(CCCCNCc2ccc(-c3nc(-c4ccc(CNCCCCN5CCN(C)CC5)cc4)c4cnn(-c5ccccc5)c4n3)cc2)CC1 [Compound 39B, oxalate] ?
1830

What value of measured IC50 is listed for CN(C)CCCCCNCc1ccc(-c2nc(-c3ccc(CNCCCCCN(C)C)cc3)c3cnn(-c4ccccc4)c3n2)cc1 [Compound 38B, oxalate] ?
350

----------
For each entry below, report its FRET-melting values in K+ conditions at 2 μM ΔTm F21T value.
System: human telomeric sequence F21T
Test: FRET-melting, F21T
Settings: K+ condition, 2 μM compound, 0.2 μM oligonucleotide
Counter-ions that a name gives are not always drawn.
Hi, when you answer, please include the unit after the number. Thanks!

Hello, I am looking for reported FRET-melting values in K+ conditions at 2 μM ΔTm F21T with human telomeric sequence F21T for CN(C)CCCNCc1ccc(-c2nc(-c3ccc(CNCCCN(C)C)s3)c3ccn(-c4ccccc4)c3n2)cc1 [Compound 6B, oxalate] . Could you help?
25.5 °C

Hello, I am looking for reported FRET-melting values in K+ conditions at 2 μM ΔTm F21T with human telomeric sequence F21T for CN1CCN(CCCNCc2ccc(-c3nc(-c4ccc(CNCCCN5CCN(C)CC5)cc4)c4ccsc4n3)cc2)CC1 [Compound 27B, oxalate] . Could you help?
9.72 °C

Hello, I am looking for reported FRET-melting values in K+ conditions at 2 μM ΔTm F21T with human telomeric sequence F21T for CN(C)CCCNCc1ccc(-c2nc(-c3ccc(CNCCCN(C)C)cc3)c3ccn(-c4ccc(CNCCCN(C)C)cc4)c3n2)cc1 [Compound 13B, oxalate] . Could you help?
29.1 °C

Hello, I am looking for reported FRET-melting values in K+ conditions at 2 μM ΔTm F21T with human telomeric sequence F21T for CN(C)CCCCCNCc1ccc(-c2nc(-c3ccc(CNCCCCCN(C)C)cc3)c3cnn(-c4ccccc4)c3n2)cc1 [Compound 41B] . Could you help?
34.0 °C

Hello, I am looking for reported FRET-melting values in K+ conditions at 2 μM ΔTm F21T with human telomeric sequence F21T for CN(C)CCCNCc1ccc(-c2nc(Cl)nc3c2ncn3-c2ccccc2)cc1 [Compound 43B] . Could you help?
1.7 °C

Hello, I am looking for reported FRET-melting values in K+ conditions at 2 μM ΔTm F21T with human telomeric sequence F21T for CN(C)CCCNCc1ccc(-c2nc(NCCCN(C)C)nc3sccc23)cc1 [Compound 28B] . Could you help?
2.41 °C

Hello, I am looking for reported FRET-melting values in K+ conditions at 2 μM ΔTm F21T with human telomeric sequence F21T for CN1CCN(CCCNCc2ccc(-c3nc(-c4ccc(CNCCCN5CCN(C)CC5)cc4)c4ccn(-c5ccccc5)c4n3)cc2)CC1 [Compound 2B, oxalate] . Could you help?
19.6 °C

----------
Tested on: human telomeric sequence F21T
Test: FRET-melting, F21T
Conditions: K+ condition, 2 μM compound, 0.2 μM oligonucleotide
Counter-ions that a name gives are not always drawn.
Binned FRET-melting values in K+ conditions at 2 μM ΔTm F21T; ranges: low = under 10 °C, moderate = from 10 °C up to 20 °C, high = 20 °C and over

The entry to classify is CN1CCN(CCCCNCc2ccc(-c3nc(-c4ccc(CNCCCCN5CCN(C)CC5)cc4)c4cnn(-c5ccccc5)c4n3)cc2)CC1 [Compound 42B] ; which class holds it?
high

The entry to classify is CN1CCN(CCCNCc2ccc(-c3nc(-c4ccc(CNCCCN5CCN(C)CC5)cc4)c4ccn(C)c4n3)cc2)CC1 [Compound 9B, oxalate] ; which class holds it?
moderate

The entry to classify is COC(=O)C(CCCCNCc1ccc(-c2nc(-c3ccc(CNCCCCC(NC(=O)OC(C)(C)C)C(=O)OC)cc3)c3ccn(C)c3n2)cc1)NC(=O)OC(C)(C)C (centres unmarked) [Compound 10B] ; which class holds it?
moderate

The entry to classify is CN(C)CCCNCc1ccc(-c2nc(NCCCN(C)C)nc3ccsc23)cc1 [Compound 31B] ; which class holds it?
low

The entry to classify is CN(C)CCCNCc1ccc(-c2cc(Cl)nc3c2ccn3-c2ccccc2)cc1 [Compound 47B, oxalate] ; which class holds it?
low

The entry to classify is CN(C)CCCNCc1ccc(-c2nc(-c3ccc(CNCCCN(C)C)cc3)c3ccn(-c4ccccc4)c3n2)cc1 [Compound 1B, oxalate] ; which class holds it?
high

The entry to classify is CN(C)CCCNCc1ccc(-c2nc(-c3ccc(CNCCCN(C)C)cc3)c3sccc3n2)cc1 [Compound 29B] ; which class holds it?
moderate

The entry to classify is CN(C)CCCNCc1ccc(-c2nc3c(c(-c4ccc(CNCCCN(C)C)cc4)n2)CCN(C(=O)OC(C)(C)C)C3)cc1 [Compound 24B] ; which class holds it?
moderate

The entry to classify is CN(C)CCCNCc1ccc(-c2nc3c(c(-c4ccc(CNCCCN(C)C)cc4)n2)CCNC3)cc1 [Compound 25B] ; which class holds it?
moderate

The entry to classify is CN(C)CCCCCNCc1ccc(-c2nc(-c3ccccc3)c3ccn(-c4ccc(CNCCCCCN(C)C)cc4)c3n2)cc1 [Compound 35B, oxalate] ; which class holds it?
high

The entry to classify is CN(C)CCCNCc1ccc(-c2nc(-c3ccc(CNCCCN(C)C)cc3)c3ccn(C)c3n2)cc1 [Compound 8B, oxalate] ; which class holds it?
moderate

The entry to classify is CN(C)CCCCNCc1ccc(-c2nc(-c3ccc(CNCCCCN(C)C)cc3)c3ncn(-c4ccccc4)c3n2)cc1 [Compound 40B] ; which class holds it?
high

The entry to classify is CN1CCN(CCCNCc2ccc(-c3nc(Cl)nc4[nH]ccc34)cc2)CC1 [Compound 16B, oxalate] ; which class holds it?
low

The entry to classify is CN1CCN(CCCNCc2ccc(-c3nc(-c4ccc(CNCCCN5CCN(C)CC5)cc4)c4sccc4n3)cc2)CC1 [Compound 30B, oxalate] ; which class holds it?
moderate
